# System: Nippostrongylus brasiliensis
# experiment.notes: Activity against roundworms in rats, A.2: treatment 24 hours after infection, post-mortem worm counts
# Type: in vivo
# test.context: 144 h, oral, 50 mg/kg, treated 24 hours after infection, read-out: % Reduction of mean worm load
The following molecules are shown together with reported inhibition in vivo at 50 mg/kg values.

# smiles.str, inhibition in vivo at 50 mg/kg, %
records = [
    ("CCCCSc1ccc(N2C(=O)CSC2=NC(=O)OC)c(NC(=O)CN(C)C)c1", 98),
    ("CCN(CC)CC(=O)Nc1cc(Sc2ccccc2)ccc1N1C(=O)CSC1=NC(=O)OC", 98),
    ("COC(=O)N=C1SCC(=O)N1c1ccc(Sc2ccccc2)cc1NC(=O)CN(C)C", 99),
    ("COC(=O)N=C1SCC(=O)N1c1ccc(Sc2ccccc2)cc1NC(=O)CCN(C)C", 81),
    ("CCCCCSc1ccc(N2C(=O)CSC2=NC(=O)OC)c(NC(=O)CN(C)C)c1", 99),
    ("COC(=O)N=C1SCC(=O)N1c1cc(Sc2ccccc2)ccc1NC(=O)CN(C)C", 95),
    ("CCSc1ccc(N2C(=O)CSC2=NC(=O)OC)c(NC(=O)CN(C)C)c1", 90),
    ("CCCSc1ccc(N2C(=O)CSC2=NC(=O)OC)c(NC(=O)CN(C)C)c1", 97),
    ("C=CCSc1ccc(N2C(=O)CSC2=NC(=O)OC)c(NC(=O)CN(C)C)c1", 98),
]
